Cited source: ChEMBL document CHEMBL1149142

# Assay: Effect of compound on percent survival of human fibroblast cells in culture was determined at 25 uM
# Type: functional
# Study conditions: read-out: Survival
Reported property: viability at 25 µM (%)

{"Compound": "OC[C@H]1O[C@@H](n2cnc3c(SCc4ccc(Cl)cc4Cl)ncnc32)[C@H](O)[C@@H]1O", "Quantitative result": 94}
{"Compound": "OC[C@H]1O[C@@H](n2cnc3c(SCc4ccc(OC(F)(F)F)cc4)ncnc32)[C@H](O)[C@@H]1O", "Quantitative result": 97.4}
{"Compound": "CCc1nc(N)nc(N)c1-c1ccc(Cl)cc1 [PYRIMETHAMINE]", "Quantitative result": 100}
{"Compound": "CC(C)(C)c1ccc(CSc2ncnc3c2ncn3[C@@H]2O[C@H](CO)[C@@H](O)[C@H]2O)cc1", "Quantitative result": 100}
{"Compound": "Nc1ccc(S(=O)(=O)Nc2ncccn2)cc1 [SULFADIAZINE]", "Quantitative result": 99.8}
